method notes: protein stability index of a GFP-peptide fusion (yeast GPS) (PSI 1-4); higher = more stable; sorted into four equal gates, so the index is relative within each strain
condition info: san1∆
Please go through the items and note down their protein stability index.
Give bare numbers.

Batch of 6 sequences: report protein stability index for each.
1. TSPLYMDPGAPLPVETP [SSN2]
2. LKSLYSFFNISPDAPKE [SIN4]
3. EETDEVSSESSDEAIIP [SIR3]
4. ARKETYSSYIYKVLKQT [HTB1]
5. IQRTTESLILKWDNQSA [RGR1]
6. IEPFECVEISHISKIIG [RPN6]

Response:
1: 2.75; 2: 1.43; 3: 2.73; 4: 1.97; 5: 2.36; 6: 1.94

Batch of 2 sequences: report protein stability index for each.
1. VLKACGILSDLEIMQLV [RET1]
2. SHIESDSTSHNNGSSDK [MED1]

Response:
1. 1.46
2. 2.84

Batch of 6 sequences: report protein stability index for each.
1. EEITCALDYLIPPPMPK [MED7]
2. SVVRGNTFKVLSKFFFF [COB]
3. SFVGDYMHDTELNYFVG [GRR1]
4. DDKDCTIKISTNDDSIK [RGR1]
5. YEAPRHGHLGFLPRKRA [RPL3]
6. KGRKTNKYANNDFANNL [CSL4]

Response:
1. 2.06
2. 2.44
3. 3.35
4. 2.98
5. 2.88
6. 3.13

Briefly, protein stability index measured for DEKEKQLAVANEIIRSL [SIR4] : 2.31
